tested on: SW-620; assay: NCI tumour cell line growth inhibition, 48 h
Calls of active or inactive are those of the source. No stated cut-off is given here; in the data, active = GI50 up to about 1.1 µM and inactive = higher.
The reply should name one outcome from yes for active, no for inactive

Answered cases to consult:
[
  {
    "COMPOUND": "CCOC(=O)CCC(C(=O)OCC)n1nc2ccc(Nc3c(C)[n+]([O-])c4ccc(Cl)cc4[n+]3[O-])cc2n1 (stereo not given)",
    "QUALITATIVE LABEL": "no"
  },
  {
    "COMPOUND": "Nc1nc(Nc2ccccc2)sc1C(=O)c1cccs1",
    "QUALITATIVE LABEL": "no"
  },
  {
    "COMPOUND": "CC(=O)Nc1ccc(/C=C/C(=O)N2CC(CCl)c3c2cc(N)c2ccccc32)cc1 (stereo not given)",
    "QUALITATIVE LABEL": "yes"
  },
  {
    "COMPOUND": "CC(C)(C)C(=O)C(c1ccc(-c2cscn2)cc1)c1ccc(-c2cscn2)cc1",
    "QUALITATIVE LABEL": "no"
  }
]

Then this compound:
Recorded test outcome, item CCOC(=O)N1C=CC(=C2C(=C3C=CN(C(=O)OCC)C=C3)C(=C3C=CN(C(=O)OCC)C=C3)C2=C2C=CN(C(=O)OCC)C=C2)C=C1
no
